Recorded values, source paper PMC2190579.

Molecular target: P2Y1R (D^116 ↦ E) (Meleagris gallopavo, UniProt P49652, D105E)
Sequence (P49652 whole entry D105E): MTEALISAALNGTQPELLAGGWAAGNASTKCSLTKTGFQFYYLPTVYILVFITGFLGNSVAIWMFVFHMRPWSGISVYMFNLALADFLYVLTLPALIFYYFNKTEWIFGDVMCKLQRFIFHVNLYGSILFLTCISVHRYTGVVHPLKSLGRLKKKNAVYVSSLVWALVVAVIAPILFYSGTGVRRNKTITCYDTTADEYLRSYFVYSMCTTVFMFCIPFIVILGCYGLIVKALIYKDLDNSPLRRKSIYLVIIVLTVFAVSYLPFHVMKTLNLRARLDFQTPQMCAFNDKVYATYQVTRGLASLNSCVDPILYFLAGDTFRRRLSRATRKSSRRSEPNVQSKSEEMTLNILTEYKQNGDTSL
Assay: Calcium mobilization
Details: read-out: EC50 (for Ca^2+ mobilization); 1321N1 cells; mean ± SEM (n = 3)
READOUT_KIND: EC50 (µM)

Nc1ncnc2c1ncn2[C@@H]1O[C@H](COP(=O)(O)OP(=O)(O)O)[C@@H](O)[C@H]1O [ADP] | 0.06

====

Biological target: P2Y2R (D^97 ↦ E), RGE mutant (Homo sapiens, UniProt P41231, D97E)
Sequence (P41231 whole entry D97E): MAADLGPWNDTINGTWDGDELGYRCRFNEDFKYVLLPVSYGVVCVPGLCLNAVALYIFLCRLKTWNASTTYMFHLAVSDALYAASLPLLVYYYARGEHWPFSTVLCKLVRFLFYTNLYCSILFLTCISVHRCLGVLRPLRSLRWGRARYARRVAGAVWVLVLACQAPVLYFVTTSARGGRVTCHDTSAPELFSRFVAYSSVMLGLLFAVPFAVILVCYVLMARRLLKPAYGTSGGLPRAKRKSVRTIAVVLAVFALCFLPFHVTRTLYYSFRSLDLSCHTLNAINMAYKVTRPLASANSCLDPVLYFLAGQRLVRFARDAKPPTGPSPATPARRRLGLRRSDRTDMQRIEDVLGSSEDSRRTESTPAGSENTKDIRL
Assay: Calcium mobilization
Details: read-out: EC50 (for Ca^2+ mobilization); 1321N1 cells; mean ± SEM (n = 3)
READOUT_KIND: EC50 (µM)

Nc1ncnc2c1ncn2[C@@H]1O[C@H](COP(=O)(O)OP(=O)(O)OP(=O)(O)O)[C@@H](O)[C@H]1O [ATP] | 785

====

Target: P2Y1R (D^121 ↦ E) (Meleagris gallopavo, UniProt P49652, D110E)
Sequence (P49652 whole entry D110E): as the sequence (P49652 whole entry D105E) above, with E105D, D110E counted along it
Assay: Calcium mobilization
Type: cell-based, turkey
Conditions: read-out: EC50 (for Ca^2+ mobilization); 1321N1 cells; mean ± SEM (n = 3)
READOUT_KIND: EC50 (µM)

Nc1ncnc2c1ncn2[C@@H]1O[C@H](COP(=O)(O)OP(=O)(O)O)[C@@H](O)[C@H]1O [ADP] | 0.08

====

Molecular target: P2Y1R (F^119 ↦ R) (Meleagris gallopavo, UniProt P49652, F108R)
Sequence (P49652 whole entry F108R): as the sequence (P49652 whole entry D105E) above, with E105D, F108R counted along it
Test: Calcium mobilization
Settings: read-out: EC50 (for Ca^2+ mobilization); 1321N1 cells; mean ± SEM (n = 3)
pEC50: −log10 of the molar value.
READOUT_KIND: pEC50

Nc1ncnc2c1ncn2[C@@H]1O[C@H](COP(=O)(O)OP(=O)(O)O)[C@@H](O)[C@H]1O | 5.69

====

System: P2Y2R (wild-type)
Assay: Calcium mobilization
Type: cell-based, human
Settings: read-out: EC50 (for Ca^2+ mobilization); 1321N1 cells; mean ± SEM (n = 3)
pEC50: −log10 of the molar value.
READOUT_KIND: pEC50

Nc1ncnc2c1ncn2[C@@H]1O[C@H](COP(=O)(O)OP(=O)(O)OP(=O)(O)O)[C@@H](O)[C@H]1O | 6.07

====

Target: P2Y1R (wild-type) (Meleagris gallopavo, UniProt P49652)
Sequence (P49652 whole entry): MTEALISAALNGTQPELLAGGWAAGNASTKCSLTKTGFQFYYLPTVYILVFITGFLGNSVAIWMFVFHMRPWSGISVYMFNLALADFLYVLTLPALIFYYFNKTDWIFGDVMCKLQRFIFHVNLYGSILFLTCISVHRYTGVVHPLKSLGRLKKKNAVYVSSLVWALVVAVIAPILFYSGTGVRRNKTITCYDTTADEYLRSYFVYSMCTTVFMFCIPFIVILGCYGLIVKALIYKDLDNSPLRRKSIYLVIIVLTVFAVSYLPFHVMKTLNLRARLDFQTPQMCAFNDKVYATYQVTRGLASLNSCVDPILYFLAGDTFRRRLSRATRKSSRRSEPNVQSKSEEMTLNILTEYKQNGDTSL
Test: Calcium mobilization
Format: cell-based, turkey
Conditions: read-out: EC50 (for Ca^2+ mobilization); 1321N1 cells; mean ± SEM (n = 3)
READOUT_KIND: EC50 (nM)

Nc1ncnc2c1ncn2[C@@H]1O[C@H](COP(=O)(O)OP(=O)(O)O)[C@@H](O)[C@H]1O | 60
